molecular target: Cytochrome P450 3A4 (Homo sapiens, UniProt P08684); test: Reversible inhibition of CYP3A4 in human liver microsomes using nifedipine as substrate incubated for 5 mins in presence of NADPH by LC-MS/MS analysis; type: ADME, Microsome
Sequence (P08684 whole entry): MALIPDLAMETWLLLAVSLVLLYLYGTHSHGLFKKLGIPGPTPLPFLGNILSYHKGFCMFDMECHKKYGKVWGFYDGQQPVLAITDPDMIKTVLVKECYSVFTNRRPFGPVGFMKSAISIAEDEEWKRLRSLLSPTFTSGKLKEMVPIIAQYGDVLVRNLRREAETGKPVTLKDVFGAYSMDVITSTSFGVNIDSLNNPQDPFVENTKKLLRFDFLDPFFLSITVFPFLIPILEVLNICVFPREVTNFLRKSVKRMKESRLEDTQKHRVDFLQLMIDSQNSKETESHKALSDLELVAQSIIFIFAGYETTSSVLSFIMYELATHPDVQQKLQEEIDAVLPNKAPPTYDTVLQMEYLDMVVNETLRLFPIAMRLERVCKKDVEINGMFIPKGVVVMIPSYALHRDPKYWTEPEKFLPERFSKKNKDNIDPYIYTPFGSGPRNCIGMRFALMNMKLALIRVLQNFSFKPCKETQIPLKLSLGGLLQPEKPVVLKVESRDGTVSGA
pIC50: −log10 of the molar value.
pIC50 values for the compounds below.
outcomeMeasure: pIC50

samplesmiles=O=C(Nc1c2c(cc3c1CCC3)CCC2)O[C@H](Cc1ncccn1)C(=O)O datavalue="< 4.52"
samplesmiles=CC(C)OC(=O)[C@@H](Cc1ncccn1)OC(=O)Nc1c2c(cc3c1CCC3)CCC2 datavalue="< 4.52"

----------
target: NACHT, LRR and PYD domains-containing protein 3 (Homo sapiens); assay: Inhibition of NLRP3 inflammasome activation in LPS-activated human PBMC cells assessed as inhibition of ATP/nigericin induced IL-1beta secretion preincubated with LPS for 3 hrs followed by compound addition for 30 mins and further stimulated with ATP for 1 hr by ELISA; format: cell-based
pIC50: −log10 of the molar value.
outcomeMeasure: pIC50

samplesmiles=CCOC(=O)COC(=O)Nc1ccccc1C(C)C system="NACHT, LRR and PYD domains-containing protein 3 (Homo sapiens)" outcomemeasure=pIC50 censorsymbol== datavalue=5.80
samplesmiles=CCOC(=O)COC(=O)Nc1cc(C)ccc1C system="NACHT, LRR and PYD domains-containing protein 3 (Homo sapiens)" outcomemeasure=pIC50 censorsymbol== datavalue=6.01
samplesmiles=CCOC(=O)COC(=O)Nc1ccccc1OC(F)(F)F system="NACHT, LRR and PYD domains-containing protein 3 (Homo sapiens)" outcomemeasure=pIC50 censorsymbol=< datavalue=4.70
samplesmiles=CCOC(=O)CNC(=O)Oc1c2c(cc3c1CCC3)CCC2 system="NACHT, LRR and PYD domains-containing protein 3 (Homo sapiens)" outcomemeasure=pIC50 censorsymbol=< datavalue=4.40
samplesmiles=O=C(Nc1c2c(cc3c1CCC3)CCC2)O[C@H](Cc1ncccn1)C(=O)O system="NACHT, LRR and PYD domains-containing protein 3 (Homo sapiens)" outcomemeasure=pIC50 censorsymbol== datavalue=7.18
samplesmiles=CCOC(=O)COC(=O)Nc1c(C)cc(C)cc1C system="NACHT, LRR and PYD domains-containing protein 3 (Homo sapiens)" outcomemeasure=pIC50 censorsymbol== datavalue=6.23

----------
experiment: Kinetic solubility of compound in PBS at pH7.4 at 1 to 200 uM incubated for 24 hrs by LC-UV analysis; type: physicochemical; conditions: pH 7.4, dose 1-200 µM, read-out: Kinetic_solubility
outcomeMeasure: solubility kinetic at 24 h (µM)

samplesmiles=CC(C)OC(=O)[C@@H](Cn1cncn1)OC(=O)Nc1c2c(cc3c1CCC3)CCC2 outcomemeasure="solubility kinetic at 24 h" unitspec=µM censorsymbol== datavalue=37
samplesmiles=CC(C)OC(=O)[C@@H](Cc1ncccn1)OC(=O)Nc1c2c(cc3c1CCC3)CCC2 outcomemeasure="solubility kinetic at 24 h" unitspec=µM censorsymbol== datavalue=28
samplesmiles=O=C(Nc1c2c(cc3c1CCC3)CCC2)O[C@H](Cc1ncccn1)C(=O)O outcomemeasure="solubility kinetic at 24 h" unitspec=µM censorsymbol=> datavalue=200
samplesmiles=CC(C)OC(=O)[C@@H](Cn1cc(C#N)cn1)OC(=O)Nc1c2c(cc3c1CCC3)CCC2 outcomemeasure="solubility kinetic at 24 h" unitspec=µM censorsymbol=< datavalue=1
samplesmiles=CC(C)OC(=O)[C@@H](Cc1cnccn1)OC(=O)Nc1c2c(cc3c1CCC3)CCC2 outcomemeasure="solubility kinetic at 24 h" unitspec=µM censorsymbol== datavalue=5.5
samplesmiles=O=C(Nc1c2c(cc3c1CCC3)CCC2)O[C@H](Cc1ncccn1)C(=O)OC1CCCC1 outcomemeasure="solubility kinetic at 24 h" unitspec=µM censorsymbol=< datavalue=1

----------
test: Drug concentration in C57BL/6J mouse brain at 3 mg/kg, iv measured after 5 mins by LC-MS/MS analysis; format: ADME, organism-based; conditions: read-out: Ct
Below: a set of entries, each annotated with reported concentration at 5 min.
outcomeMeasure: concentration at 5 min (ng/g)

compound="CC(C)OC(=O)[C@@H](Cc1ncccn1)OC(=O)Nc1c2c(cc3c1CCC3)CCC2 [NT-0796]" unitspec=ng/g datavalue=479
compound=O=C(Nc1c2c(cc3c1CCC3)CCC2)O[C@H](Cc1ncccn1)C(=O)O unitspec=ng/g datavalue=91.7

----------
experiment: Permeability of compound at pH 7.4 incubated for 4 hrs by […] based PAMPA assay; format: ADME; details: read-out: permeability
Tag: Met if measured Papp at 4 h is not below 5 ×10⁻⁶ cm/s, Not met if it is.

samplesmiles=O=C(Nc1c2c(cc3c1CCC3)CCC2)O[C@H](Cc1ncccn1)C(=O)O labelvalue="Not met"
samplesmiles=CC(C)OC(=O)[C@@H](Cn1cncn1)OC(=O)Nc1c2c(cc3c1CCC3)CCC2 labelvalue=Met
samplesmiles=CC(C)OC(=O)[C@@H](Cc1ncccn1)OC(=O)Nc1c2c(cc3c1CCC3)CCC2 labelvalue=Met
samplesmiles=CC(C)OC(=O)[C@@H](Cc1cnccn1)OC(=O)Nc1c2c(cc3c1CCC3)CCC2 labelvalue=Met
samplesmiles=CCOC(=O)[C@@H](Cc1ncccn1)NC(=O)Nc1c2c(cc3c1CCC3)CCC2 labelvalue=Met
samplesmiles=O=C(Nc1c2c(cc3c1CCC3)CCC2)O[C@H](Cc1ncccn1)C(=O)OC1CCCC1 labelvalue="Not met"
samplesmiles=CC(C)(O)c1coc(S(=O)(=O)NC(=O)Nc2c3c(cc4c2CCC4)CCC3)c1 labelvalue="Not met"

----------
assay: Drug concentration in C57BL/6J mouse blood at 3 mg/kg, iv measured after 5 mins by LC-MS/MS analysis; type: ADME, organism-based; settings: read-out: Ct
outcomeMeasure: concentration at 5 min

samplesmiles=CC(C)OC(=O)[C@@H](Cc1ncccn1)OC(=O)Nc1c2c(cc3c1CCC3)CCC2 outcomemeasure="concentration at 5 min" datavalue="610 ng/mL"
samplesmiles=O=C(Nc1c2c(cc3c1CCC3)CCC2)O[C@H](Cc1ncccn1)C(=O)O outcomemeasure="concentration at 5 min" datavalue="1160 ng/mL"

----------
biological target: NACHT, LRR and PYD domains-containing protein 3 (Homo sapiens, UniProt Q96P20); test: Inhibition of NLRP3 inflammasome activation in human whole blood assessed as inhibition of LPS/ATP induced IL-1beta secretion preincubated with LPS for 3 hrs followed by compound addition for 30 mins and further stimulated with ATP for 60 mins by ELISA; assay type: tissue-based
Sequence (Q96P20 whole entry, the tested form may be a part): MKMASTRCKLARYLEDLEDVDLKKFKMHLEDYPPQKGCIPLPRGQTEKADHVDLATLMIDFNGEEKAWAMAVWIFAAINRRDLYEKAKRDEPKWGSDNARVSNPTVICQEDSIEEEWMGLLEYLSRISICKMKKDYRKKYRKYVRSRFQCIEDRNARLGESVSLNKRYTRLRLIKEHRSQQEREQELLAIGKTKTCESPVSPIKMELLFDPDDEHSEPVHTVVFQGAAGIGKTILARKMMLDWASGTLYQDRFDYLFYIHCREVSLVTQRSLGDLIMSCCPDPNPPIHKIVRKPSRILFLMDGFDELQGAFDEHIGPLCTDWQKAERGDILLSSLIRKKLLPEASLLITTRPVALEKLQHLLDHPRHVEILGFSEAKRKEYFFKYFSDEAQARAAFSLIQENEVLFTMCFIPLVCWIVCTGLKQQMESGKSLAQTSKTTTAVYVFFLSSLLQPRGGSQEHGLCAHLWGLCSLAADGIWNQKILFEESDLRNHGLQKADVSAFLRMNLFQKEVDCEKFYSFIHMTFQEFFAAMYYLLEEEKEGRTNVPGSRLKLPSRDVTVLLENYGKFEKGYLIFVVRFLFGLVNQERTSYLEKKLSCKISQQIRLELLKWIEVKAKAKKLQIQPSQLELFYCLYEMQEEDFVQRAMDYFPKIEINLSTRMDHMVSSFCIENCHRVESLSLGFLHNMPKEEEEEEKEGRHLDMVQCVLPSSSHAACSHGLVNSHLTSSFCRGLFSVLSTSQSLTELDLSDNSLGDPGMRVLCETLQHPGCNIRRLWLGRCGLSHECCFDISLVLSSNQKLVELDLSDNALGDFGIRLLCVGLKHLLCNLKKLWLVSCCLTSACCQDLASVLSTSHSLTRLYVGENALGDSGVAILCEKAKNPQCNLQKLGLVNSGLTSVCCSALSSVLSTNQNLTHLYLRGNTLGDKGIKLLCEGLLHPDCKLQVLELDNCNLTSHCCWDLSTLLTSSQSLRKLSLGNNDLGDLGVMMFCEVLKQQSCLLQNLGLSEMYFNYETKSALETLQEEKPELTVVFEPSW
So basically, if IC50 comes in under 4 µM it's T, and if it's 4 µM or more it's F.

samplesmiles=CCOC(=O)COC(=O)Nc1ccccc1C#N system="NACHT, LRR and PYD domains-containing protein 3 (Homo sapiens, UniProt Q96P20)" labelvalue=F
samplesmiles=O=C(Nc1c2c(cc3c1CCC3)CCC2)O[C@H](Cc1ncccn1)C(=O)O system="NACHT, LRR and PYD domains-containing protein 3 (Homo sapiens, UniProt Q96P20)" labelvalue=F
samplesmiles=CCOC(=O)COC(=O)Nc1c(Cl)cccc1Cl system="NACHT, LRR and PYD domains-containing protein 3 (Homo sapiens, UniProt Q96P20)" labelvalue=F
samplesmiles=CCOC(=O)COC(=O)N(C)c1c2c(cc3c1CCC3)CCC2 system="NACHT, LRR and PYD domains-containing protein 3 (Homo sapiens, UniProt Q96P20)" labelvalue=F
samplesmiles=CCOC(=O)COC(=O)Nc1c(C(C)C)cccc1C(C)C system="NACHT, LRR and PYD domains-containing protein 3 (Homo sapiens, UniProt Q96P20)" labelvalue=F
samplesmiles=CCOC(=O)COC(=O)Nc1c(C)cccc1C system="NACHT, LRR and PYD domains-containing protein 3 (Homo sapiens, UniProt Q96P20)" labelvalue=T
samplesmiles=CCOC(=O)CNC(=O)Oc1c2c(cc3c1CCC3)CCC2 system="NACHT, LRR and PYD domains-containing protein 3 (Homo sapiens, UniProt Q96P20)" labelvalue=F
samplesmiles=CCOC(=O)COC(=O)Nc1c(F)cccc1F system="NACHT, LRR and PYD domains-containing protein 3 (Homo sapiens, UniProt Q96P20)" labelvalue=F
samplesmiles=CCOC(=O)COC(=O)Nc1c(C)cccc1CC system="NACHT, LRR and PYD domains-containing protein 3 (Homo sapiens, UniProt Q96P20)" labelvalue=T
samplesmiles=CCOC(=O)COC(=O)Nc1cc(C)ccc1C system="NACHT, LRR and PYD domains-containing protein 3 (Homo sapiens, UniProt Q96P20)" labelvalue=T
samplesmiles=CCOC(=O)COC(=O)Nc1c(CC)cccc1CC system="NACHT, LRR and PYD domains-containing protein 3 (Homo sapiens, UniProt Q96P20)" labelvalue=F
samplesmiles=CCOC(=O)COC(=O)Nc1ccccc1C(F)(F)F system="NACHT, LRR and PYD domains-containing protein 3 (Homo sapiens, UniProt Q96P20)" labelvalue=F
samplesmiles=CCOC(=O)COC(=O)Nc1ccccc1C(C)C system="NACHT, LRR and PYD domains-containing protein 3 (Homo sapiens, UniProt Q96P20)" labelvalue=F
samplesmiles=CCOC(=O)COC(=O)Nc1ccccc1OC(F)(F)F system="NACHT, LRR and PYD domains-containing protein 3 (Homo sapiens, UniProt Q96P20)" labelvalue=F
samplesmiles=COC(=O)CN(C)C(=O)Nc1c2c(cc3c1CCC3)CCC2 system="NACHT, LRR and PYD domains-containing protein 3 (Homo sapiens, UniProt Q96P20)" labelvalue=F
